Measured values drawn from patent US20240383898A1 for this set.

The next entries give measured pIC50 for JAK2 (Homo sapiens).
pIC50: −log10 of the molar value.

| molecule | pIC50 |
| --- | --- |
| C[C@@H](O)c1nc2cnc3[nH]ccc3c2n1[C@H]1CCN(CC(F)(F)C(F)(F)C(F)(F)F)C1 | 6.00 to 7.00 |
| C[C@@H](O)c1nc2cnc3[nH]ccc3c2n1C1CCN(C(=O)C2(C#N)CC2)C1 (some centres unmarked) | 6.00 to 7.00 |
| N#CCCCn1cc(-n2cnc3cnc4[nH]ccc4c32)cn1 | 7.00 to 8.00 |
| N#C[C@H]1CC[C@H](n2c(-c3ccccc3F)nc3cnc4[nH]ccc4c32)CC1 (stereo in doubt) | 7.00 to 8.00 |
| C[C@@H](O)c1nc2cnc3[nH]ccc3c2n1[C@@H]1CN(CCCCC#N)CC12CC2 | 7.00 to 8.00 |
| CCCS(=O)(=O)N1CCC(n2c(-c3ncc[nH]3)nc3cnc4[nH]ccc4c32)C1 (centres unmarked) | 7.00 to 8.00 |
| O=C(C1CC1)N1CCC(n2c(-c3ccc(CO)o3)nc3cnc4[nH]ccc4c32)C1 (centres unmarked) | 7.00 to 8.00 |
| CCCS(=O)(=O)N1CCC(n2c(-c3ccccc3O)nc3cnc4[nH]ccc4c32)C1 (centres unmarked) | 6.00 to 7.00 |
